Biological target: plasma kallikrein (UniProt P03952 20-638)
Sequence (P03952 20-638 limits assumed): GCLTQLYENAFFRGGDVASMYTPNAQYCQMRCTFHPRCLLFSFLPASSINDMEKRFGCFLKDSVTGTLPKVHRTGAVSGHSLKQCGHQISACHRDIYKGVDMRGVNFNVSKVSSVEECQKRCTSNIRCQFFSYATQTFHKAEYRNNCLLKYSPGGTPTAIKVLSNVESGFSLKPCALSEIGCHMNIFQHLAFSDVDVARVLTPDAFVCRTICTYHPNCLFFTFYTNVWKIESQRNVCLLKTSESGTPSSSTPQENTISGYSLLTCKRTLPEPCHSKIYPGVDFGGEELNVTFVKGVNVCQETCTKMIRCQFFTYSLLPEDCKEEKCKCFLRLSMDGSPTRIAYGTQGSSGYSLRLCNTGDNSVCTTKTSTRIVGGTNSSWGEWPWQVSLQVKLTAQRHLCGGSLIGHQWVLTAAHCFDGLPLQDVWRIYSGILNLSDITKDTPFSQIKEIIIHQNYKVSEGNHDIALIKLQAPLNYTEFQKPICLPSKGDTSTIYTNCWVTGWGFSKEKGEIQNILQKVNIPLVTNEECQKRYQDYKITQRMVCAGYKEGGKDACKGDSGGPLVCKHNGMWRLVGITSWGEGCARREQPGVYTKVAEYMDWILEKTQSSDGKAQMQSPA
Assay: SPR kinetics, Ir-CPI immobilized (about 200 RU), analyte at 6 concentrations from 5 nM to 300 nM
readout-type: Kd (nM)
One number for each entry, in nM.

Task: What measured Kd goes with Ir-CPI (Ixodes ricinus Contact Phase Inhibitor), recombinant (other, Kunitz-type protein; Made in E. coli as a GST fusion (pGEX-6P-1), released with PreScission protease and gel filtered; In the SPR assay it was amine-coupled to a CM5 chip; also called ID; NO; 7 without its peptide signal) ANHKGRGRPAKCKLPPDDGPCRARIPSYYFDRKTKTCKEFMYGGCEGNENNFENITTCQEECRAKKV ?
Output: 200
